Tested on: SEM cells
Test method notes: cell viability relative to DMSO control; higher = less cytotoxic
Stated conditions: RPMI 5 mM glucose + 10% FBS; 48 h; 0.00234 µM
Measured cell viability, listed per entry for reference.

Molecule	Uom	cell viability
CC\1=C(C(=O)N(\C=C1)C2=CC=C(C=C2)C3=NC=CO3)/C4=CC5=CN=C(N)N=C5C=C4	%	115
CCOc1cc(N)c(Cl)cc1C(=O)NCC1CN(Cc2ccc(F)cc2)CCO1 (stereo not drawn)	%	113
CCC[C@H](N[C@@H](C)C(=O)N1[C@H](C(=O)O)C[C@@H]2CCCC[C@@H]21)C(=O)OCC	%	101
C1CCC(C(CC2CCCCN2)C2CCCCC2)CC1 (stereo not drawn)	%	122
OC[C@H]1O[C@H]([C@@H](F)[C@@H]1O)N2\C=C/C(=O)NC2=O	%	113
NC(=O)c1ncn([C@@H]2O[C@H](CO)[C@@H](O)[C@H]2O)n1	%	115
N=C(N)NC(=O)c1nc(Cl)c(N)nc1N	%	107
N[S+](=O)([O-])c1cc(Cl)c(Cl)c([S+](N)(=O)[O-])c1	%	97
NC(CO)(CO)CCc1ccc(Sc2cccc(OCc3ccccc3)c2)cc1Cl	%	99
NC1=NC=C(C=C1)C2=CC=C3N=CC\4=C(N(C(=O)\C=C4)C5=CC(=CC=C5)C(F)(F)F)C3=C2	%	81.8
O=C1Nc2cc(Br)ccc2/C1=C1/Nc2ccccc2/C1=N\O	%	113
Cc1cc(Nc2nc(N[C@@H](C)c3ncc(F)cn3)ncc2Cl)n[nH]1	%	129
OC[C@H](Cc1ccccc1)Nc1nc(Oc2ccc3c(c2)CCC3)nc2c1ncn2Cc1ccc(-c2ccccc2)cc1	%	85.9
CN1\C(=C(\O)C2=C(C=CS2)[S+]1([O-])=O)C(=O)NC3=CC=CC=N3	%	107
CCOC(=O)[C@H](CCc1ccccc1)N[C@@H](C)C(=O)N1CCC[C@H]1C(=O)O	%	112
CN(C)CCc1c[nH]c2ccc(C[C@H]3COC(=O)N3)cc12	%	85.5
CN1CCC(CC1)COC2=CN=C(N=C2)C3=CC(=CC=C3)CN4/N=C(\C=C/C4=O)C5=CC(=CC=C5)C#N	%	87.1
Clc1cc(Cl)cc(CNc2ncncc2-c2ccc3c(c2)OCO3)c1	%	97.4
